From: ChEMBL document CHEMBL4043131

The following molecules are listed with their measured selectivity ratio values.
assay: Selectivity index, ratio of CC50 for HEL cells to EC50 for Human cytomegalovirus Davis infected in HEL cells; format: toxicity, cell-based; conditions: read-out: Ratio CC50/EC50

Solved cases (3 shown):
CCCCCCCCCCCCCCCCNC(=O)[C@@H](N)Cc1ccc(OP(=O)(COCCn2cnc(N)nc2=O)Oc2ccc(C[C@H](N)C(=O)NCCCCCCCCCCCCCCCC)cc2)cc1 ... 13 to 56
CC(C)(C)C(=O)OCOP(=O)(COCCn1cnc(N)nc1=O)OCOC(=O)C(C)(C)C ... 14 to 47
CCCCCCCCCCCCCCCCCCOCCOP(=O)(O)COCCn1cnc(N)nc1=O ... 71 to 330

Please find the next molecule below.
Q) Which selectivity ratio reading was recorded for the molecule CCOC(=O)[C@H](C)NP(=O)(COCCOc1cc(N)nc(N)n1)N[C@@H](C)C(=O)OCC ?
A) ≤ 1

* * *

The following compounds are listed with their measured selectivity ratio values.
test: Selectivity index, ratio of CC50 for HEL cells to EC50 for wild type Herpes simplex virus 1 KOS infected in HEL cells; assay type: toxicity, cell-based; details: human, read-out: Ratio CC50/EC50

Solved cases (4 shown):
CCCCCCCCCCCCCCCCNC(=O)[C@@H](N)Cc1ccc(OP(=O)(COCCn2cnc(N)nc2=O)Oc2ccc(C[C@H](N)C(=O)NCCCCCCCCCCCCCCCC)cc2)cc1 ... 45 to 68
CCOC(=O)[C@H](C)NP(=O)(COCCOc1cc(N)nc(N)n1)N[C@@H](C)C(=O)OCC ... 4 to 15
CC(C)(C)C(=O)OCOP(=O)(COCCn1cnc(N)nc1=O)OCOC(=O)C(C)(C)C ... 37 to 63
CCCCCCCCCCCCCCCCCCOCCOP(=O)(O)COCCn1cnc(N)nc1=O ... 226 to 528

Q) Which selectivity ratio reading was recorded for the compound Nc1cc(OCCOCP(=O)(O)O)nc(N)n1 ?
A) 1.72 to 4.5

* * *

tested on: HEL; test: Cytotoxicity against HEL cells assessed as reduction in cell growth after 3 days by coulter counter method; assay type: cell-based; details: human, hel, 72 h
Note to self: CC50 under 80 µM means t, ties and anything higher get f.

CCOC(=O)[C@H](Cc1ccccc1)NP(=O)(COCCn1cnc(N)nc1=O)N[C@@H](Cc1ccccc1)C(=O)OCC ... f
Nc1ccn(C[C@@H](CO)OCP(=O)(O)O)c(=O)n1 ... f
CC(C)(C)C(=O)OCOP(=O)(O)COCCOc1cc(N)nc(N)n1 ... f

Q) Take the molecule CC(C)(C)C(=O)OCOP(=O)(COCCn1cnc(N)nc1=O)OCOC(=O)C(C)(C)C and say whether its CC50 is less than 80 µM.
A) t

Q) Take the molecule Nc1nc(O)c2ncn(COC(CO)CO)c2n1 and say whether its CC50 is less than 80 µM.
A) f

Q) Take the molecule CC(C)(C)C(=O)OCOP(=O)(O)COCCn1cnc(N)nc1=O and say whether its CC50 is less than 80 µM.
A) f

Q) Take the molecule COP(=O)(O)COCCn1cnc(N)nc1=O and say whether its CC50 is less than 80 µM.
A) f

Q) Take the molecule CCOC(=O)[C@H](Cc1ccccc1)NP(=O)(O)COCCn1cnc(N)nc1=O and say whether its CC50 is less than 80 µM.
A) f

Q) Take the molecule CCOC(=O)[C@H](C)NP(=O)(COCCOc1cc(N)nc(N)n1)N[C@@H](C)C(=O)OCC and say whether its CC50 is less than 80 µM.
A) t

* * *

tested on: Human alphaherpesvirus 1; assay: Antiviral activity against thymidine kinase-deficient ACV-resistant Herpes simplex virus 1 KOS infected in HEL cells assessed as inhibition of virus-induced cytopathic effect; type: functional, cell-based; conditions: Human alphaherpesvirus 1, KOS
READOUT: pEC50
pEC50 here: minus log base 10 of the concentration, concentration in moles per litre.

CCOC(=O)[C@H](Cc1ccccc1)NP(=O)(COCCn1cnc(N)nc1=O)N[C@@H](Cc1ccccc1)C(=O)OCC ... 4.38

Q) Item: CC(C)(C)C(=O)OCOP(=O)(COCCOc1cc(N)nc(N)n1)OCOC(=O)C(C)(C)C Test system: Human alphaherpesvirus 1 Read-out: pEC50 Value: ?
A) 4.84

Q) Item: CC(C)(C)C(=O)OCOP(=O)(O)COCCn1cnc(N)nc1=O Test system: Human alphaherpesvirus 1 Read-out: pEC50 Value: ?
A) 3.88

* * *

The following compounds are listed with their measured selectivity ratio values.
assay: Selectivity index, ratio of CC50 for HEL cells to EC50 for wild type thymidine kinase expressing Varicella-Zoster virus Oka infected in HEL cells; type: toxicity, cell-based; conditions: human, read-out: Ratio CC50/EC50

CCOC(=O)[C@H](C)NP(=O)(COCCOc1cc(N)nc(N)n1)N[C@@H](C)C(=O)OCC ... 15 to 52
CC(C)(C)C(=O)OCOP(=O)(COCCn1cnc(N)nc1=O)OCOC(=O)C(C)(C)C ... 35 to 71
CCCCCCCCCCCCCCCCCCOCCOP(=O)(O)COCCn1cnc(N)nc1=O ... 100 to 248
CCCCCCCCCCCCCCCCNC(=O)[C@@H](N)Cc1ccc(OP(=O)(COCCn2cnc(N)nc2=O)Oc2ccc(C[C@H](N)C(=O)NCCCCCCCCCCCCCCCC)cc2)cc1 ... 47 to 93

Please find the next compound below.
Q) Which selectivity ratio reading was recorded for the compound Nc1cc(OCCOCP(=O)(O)O)nc(N)n1 ?
A) 19 to 44

* * *

tested on: Human alphaherpesvirus 2; assay: Antiviral activity against Herpes simplex virus 2 G infected in HEL cells assessed as inhibition of virus-induced cytopathic effect; assay type: functional, cell-based; conditions: Human alphaherpesvirus 2, strain G
READOUT: EC50 (µM)
Value expressed in µM; do not type the unit.

Solved cases (4 shown):
CCCCCCCCCCCCCCCCNC(=O)[C@@H](N)Cc1ccc(OP(=O)(COCCn2cnc(N)nc2=O)Oc2ccc(C[C@H](N)C(=O)NCCCCCCCCCCCCCCCC)cc2)cc1 ... 0.4
Nc1nc2c(ncn2COCCO)c(=O)[nH]1 ... 0.18
Nc1ccn(C[C@@H](CO)OCP(=O)(O)O)c(=O)n1 ... 1.39
CC(C)(C)C(=O)OCOP(=O)(O)COCCOc1cc(N)nc(N)n1 ... 29

Q) Which EC50 reading was recorded for the molecule O=c1[nH]c(=O)n([C@H]2C[C@H](O)[C@@H](CO)O2)cc1/C=C/Br ?
A) 141

Q) Which EC50 reading was recorded for the molecule CC(C)(C)C(=O)OCOP(=O)(O)COCCn1cnc(N)nc1=O ?
A) 142

* * *

The following compounds are listed with their measured MCC values.
assay: Cytotoxicity against HEL cells assessed as alteration of cell morphology by microscopic analysis; type: cell-based; details: human

CC(C)OC(=O)OCOP(=O)(COCCOc1cc(N)nc(N)n1)OCOC(=O)OC(C)C ... > 202 µM

Please find the next compound below.
Q) Which MCC reading was recorded for the compound CCOC(=O)[C@H](Cc1ccccc1)NP(=O)(COCCn1cnc(N)nc1=O)N[C@@H](Cc1ccccc1)C(=O)OCC ?
A) > 100 µM

* * *

assay: Selectivity index, ratio of CC50 for HEL cells to EC50 for Herpes simplex virus 2 G infected in HEL cells; format: toxicity, cell-based; conditions: human, read-out: Ratio CC50/EC50
READOUT: selectivity ratio

Solved cases (4 shown):
CCOC(=O)[C@H](C)NP(=O)(COCCOc1cc(N)nc(N)n1)N[C@@H](C)C(=O)OCC ... 4 to 15
Nc1cc(OCCOCP(=O)(O)O)nc(N)n1 ... 1.72 to 4.5
CC(C)(C)C(=O)OCOP(=O)(COCCn1cnc(N)nc1=O)OCOC(=O)C(C)(C)C ... 37 to 63
CCCCCCCCCCCCCCCCNC(=O)[C@@H](N)Cc1ccc(OP(=O)(COCCn2cnc(N)nc2=O)Oc2ccc(C[C@H](N)C(=O)NCCCCCCCCCCCCCCCC)cc2)cc1 ... 45 to 68

Q) Which selectivity ratio reading was recorded for the compound CCCCCCCCCCCCCCCCCCOCCOP(=O)(O)COCCn1cnc(N)nc1=O ?
A) 226 to 528

* * *

system: Human alphaherpesvirus 1; assay: Antiviral activity against thymidine kinase-deficient ACV-resistant Herpes simplex virus 1 KOS infected in HEL cells assessed as inhibition of virus-induced cytopathic effect; format: functional, cell-based; details: Human alphaherpesvirus 1, KOS
READOUT: log10 EC50 (log10 of the value in µM)
Note: values are log10 of EC50 expressed in µM.

Solved cases (5 shown):
CC(C)(C)C(=O)OCOP(=O)(O)COCCOc1cc(N)nc(N)n1 ... 1.73
Nc1cc(OCCOCP(=O)(O)O)nc(N)n1 ... 1.73
CCCCCCCCCCCCCCCCNC(=O)[C@@H](N)Cc1ccc(OP(=O)(COCCn2cnc(N)nc2=O)Oc2ccc(C[C@H](N)C(=O)NCCCCCCCCCCCCCCCC)cc2)cc1 ... -0.40
CCOC(=O)[C@H](C)NP(=O)(COCCOc1cc(N)nc(N)n1)N[C@@H](C)C(=O)OCC ... 0.80
CC(C)(C)C(=O)OCOP(=O)(COCCn1cnc(N)nc1=O)OCOC(=O)C(C)(C)C ... -0.14

Q) Which log10 EC50 reading was recorded for the compound Nc1ccn(C[C@@H](CO)OCP(=O)(O)O)c(=O)n1 [CIDOFOVIR] ?
A) 0.42

Q) Which log10 EC50 reading was recorded for the compound CC(C)OC(=O)OCOP(=O)(COCCn1cnc(N)nc1=O)OCOC(=O)OC(C)C ?
A) 1.34

Q) Which log10 EC50 reading was recorded for the compound CCCCCCCCCCCCCCCCCCOCCOP(=O)(O)COCCn1cnc(N)nc1=O ?
A) -0.70
